# target: EGFR (Homo sapiens (Human), UniProt P00533)
# Sequence (P00533 25-1210): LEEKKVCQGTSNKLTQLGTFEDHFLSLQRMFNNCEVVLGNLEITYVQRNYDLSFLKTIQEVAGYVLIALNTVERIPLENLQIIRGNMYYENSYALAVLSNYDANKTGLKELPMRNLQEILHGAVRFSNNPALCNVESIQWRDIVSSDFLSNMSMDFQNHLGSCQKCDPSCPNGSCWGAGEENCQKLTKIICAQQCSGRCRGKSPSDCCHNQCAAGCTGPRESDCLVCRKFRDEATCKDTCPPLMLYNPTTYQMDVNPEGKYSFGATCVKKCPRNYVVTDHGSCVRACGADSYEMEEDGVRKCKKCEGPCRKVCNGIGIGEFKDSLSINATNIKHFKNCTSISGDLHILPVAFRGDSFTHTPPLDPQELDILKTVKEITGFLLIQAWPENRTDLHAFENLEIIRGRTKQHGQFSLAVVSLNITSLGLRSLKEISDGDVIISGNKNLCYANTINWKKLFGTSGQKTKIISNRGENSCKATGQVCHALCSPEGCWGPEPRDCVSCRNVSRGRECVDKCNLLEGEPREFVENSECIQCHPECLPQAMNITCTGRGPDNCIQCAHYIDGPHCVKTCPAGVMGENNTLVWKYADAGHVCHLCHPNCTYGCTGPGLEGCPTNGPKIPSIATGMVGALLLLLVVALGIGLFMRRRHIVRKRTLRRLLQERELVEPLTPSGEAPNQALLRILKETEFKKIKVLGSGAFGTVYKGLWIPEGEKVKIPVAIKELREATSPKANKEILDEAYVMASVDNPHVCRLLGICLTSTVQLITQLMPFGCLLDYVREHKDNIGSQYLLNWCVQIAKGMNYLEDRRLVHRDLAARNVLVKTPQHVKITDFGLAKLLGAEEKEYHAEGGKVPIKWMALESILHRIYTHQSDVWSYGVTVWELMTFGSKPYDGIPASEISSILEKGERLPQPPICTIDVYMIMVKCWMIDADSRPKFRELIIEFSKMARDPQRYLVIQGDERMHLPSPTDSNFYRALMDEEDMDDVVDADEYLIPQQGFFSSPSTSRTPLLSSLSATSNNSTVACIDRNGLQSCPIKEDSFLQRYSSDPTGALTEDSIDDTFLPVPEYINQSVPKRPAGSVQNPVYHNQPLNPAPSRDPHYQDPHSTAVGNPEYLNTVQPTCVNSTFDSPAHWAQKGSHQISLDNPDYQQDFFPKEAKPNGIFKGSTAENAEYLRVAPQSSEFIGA
# procedureDetails: ErbB Enzyme Assay (HTRF KinEASE-TK), Assay 3
# Assay type: biochemical
# conditionParameters: EGFR enzyme assay
Quick reference for log10 of IC50 among some compounds
The base-10 logarithm of IC50, taken with IC50 in nM, is what appears here.

// solved cases for log10 of IC50 follow
Lookup: Look up log10 of IC50: "C=CC(=O)N1CCN(c2ccc3ncnc(Nc4ccc(Oc5cc(F)c6c(c5)ncn6C)c(C)c4)c3n2)C[C@H]1CC"
Found: 3.37

Lookup: What do you have for "C=CC(=O)N1C[C@H]2CC[C@@H]1CN2c1ccc2ncnc(Nc3ccc(Oc4ccn5ncnc5c4)c(Cl)c3F)c2n1" ?
Found: 2.84

Lookup: What do you have for "C=CC(=O)N1CCN(c2ccc3ncnc(Nc4cc(Cl)c(Oc5ccn6ncnc6c5)cc4F)c3n2)C[C@@H]1COC" ?
Found: 3.14

Lookup: What do you have for "C=CC(=O)N1[C@@H]2CC[C@H]1[C@H](c1ccc3ncnc(Nc4ccc(Oc5cnc6c(c5)ncn6C)c(C)c4F)c3n1)C2" ?
Found: 3.02

Lookup: What do you have for C=CC(=O)N1C[C@@H]2CC[C@H]1CN(c1ccc3ncnc(Nc4ccc(Oc5ccn6ncnc6c5)c(C)c4F)c3n1)C2 (racemic) ?
Found: 3.06

Lookup: What do you have for C=CC(=O)N1CCN(c2ccc3ncnc(Nc4ccc(Oc5ccn6ncnc6c5)c(Cl)c4F)c3n2)C[C@@H]1C(F)F (racemic) ?
Found: 1.47

Next:
Lookup: Look up log10 of IC50: C=CC(=O)N1CCCCC(c2ccc3ncnc(Nc4cc(C)c(Oc5ccn6ncnc6c5)cc4F)c3n2)C1 (centres unmarked)
Found: 3.32

Lookup: What do you have for "C=CC(=O)N1C[C@@H]2C[C@H]1CC[C@@H]2c1ccc2ncnc(Nc3ccc(Oc4ccc5c(c4)ncn5C)c(C)c3F)c2n1" ?
Found: 3.62

Lookup: What do you have for "C=CC(=O)N1CCN(c2ccc3ncnc(Nc4ccc(Oc5cc(F)c6c(c5)ncn6C)c(C)c4)c3n2)CC1" ?
Found: 2.54

Lookup: What do you have for "C=CC(=O)N1[C@H]2CC[C@@H]1[C@H](c1ccc3ncnc(Nc4ccc(Oc5ccn6ncnc6c5)c(C)c4F)c3n1)CC2" ?
Found: 2.72

Lookup: What do you have for "C=CC(=O)N1C[C@H]2C[C@@H]1[C@H](c1ccc3ncnc(Nc4ccc(Oc5ccn6ncnc6c5)c(C)c4F)c3n1)C2" ?
Found: 3.05

Lookup: What do you have for "C=CC(=O)N1C[C@@H]2C[C@H]1C[C@H]2c1ccc2ncnc(Nc3cc(C)c(Oc4ccn5ncnc5c4)cc3F)c2n1" ?
Found: 3.20

Lookup: What do you have for "C=CC(=O)N1CCC12CN(c1ccc3ncnc(Nc4ccc(Oc5ccn6ncnc6c5)c(Cl)c4F)c3n1)C2" ?
Found: 2.08

Lookup: What do you have for "C=CC(=O)N1[C@@H]2CC[C@H]1[C@H](c1ccc3ncnc(Nc4cc(C)c(Oc5ccn6ncnc6c5)cc4F)c3n1)C2" ?
Found: 3.17

----------
# target: BCRP (Homo sapiens (Human), UniProt Q9UNQ0)
# Sequence (Q9UNQ0 whole entry): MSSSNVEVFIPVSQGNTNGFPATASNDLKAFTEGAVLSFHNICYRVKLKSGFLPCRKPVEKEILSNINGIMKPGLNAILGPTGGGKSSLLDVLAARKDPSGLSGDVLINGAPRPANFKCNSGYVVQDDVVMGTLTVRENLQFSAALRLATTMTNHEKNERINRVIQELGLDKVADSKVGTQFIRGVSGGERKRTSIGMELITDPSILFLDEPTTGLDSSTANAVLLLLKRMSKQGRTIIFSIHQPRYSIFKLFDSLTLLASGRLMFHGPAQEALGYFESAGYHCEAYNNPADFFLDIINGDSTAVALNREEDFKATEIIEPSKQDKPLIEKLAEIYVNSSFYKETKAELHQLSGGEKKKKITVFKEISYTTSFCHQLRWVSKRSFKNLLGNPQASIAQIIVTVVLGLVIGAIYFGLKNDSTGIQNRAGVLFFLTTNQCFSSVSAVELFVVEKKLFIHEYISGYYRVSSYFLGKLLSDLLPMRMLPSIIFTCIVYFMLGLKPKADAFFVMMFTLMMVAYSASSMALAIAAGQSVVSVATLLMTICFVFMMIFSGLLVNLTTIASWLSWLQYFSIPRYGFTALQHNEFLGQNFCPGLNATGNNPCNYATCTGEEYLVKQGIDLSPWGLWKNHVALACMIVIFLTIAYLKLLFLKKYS
# procedureDetails: BCRP MDCKII efflux assay (Assay 7)
# Format: in vitro ADME
# conditionParameters: dog; efflux ratio Papp(B-A)/Papp(A-B), BCRP MDCKII cells; read-out: Assay 7 Pe Ratio
Classify: 1.0 when efflux ratio at 2 h, 1 µM is strictly less than 3; 0.0 when efflux ratio at 2 h, 1 µM is not.

Recorded results for 6 compounds are shown here.
Lookup: Threshold test, efflux ratio at 2 h, 1 µM < 3: C=CC(=O)N1CCC(Oc2nc3c(Nc4ccc(Oc5ccn6ncnc6c5)c(Cl)c4F)ncnc3cc2OC)CC1 [Example 39]
Found: 1.0

Lookup: What do you have for C=CC(=O)N1C[C@H]2C[C@H](c3ccc4ncnc(Nc5ccc(Oc6ccn7ncnc7c6)c(Cl)c5F)c4n3)[C@@H]1C2 [Example 230] ?
Found: 1.0

Lookup: What do you have for C=CC(=O)N1CCCC(c2ccc3ncnc(Nc4ccc(Oc5cnc6c(c5)ncn6C)c(C)c4)c3n2)CC1 (stereo not shown) [Example 403] ?
Found: 0.0

Lookup: What do you have for C=CC(=O)N1[C@@H]2CC[C@H]1C[C@@H](c1ccc3ncnc(Nc4ccc(Oc5ccn6ncnc6c5)c(Cl)c4F)c3n1)C2 [Example 214] ?
Found: 0.0

Lookup: What do you have for C=CC(=O)N1C2CC1CN(c1ccc3ncnc(Nc4cc(C)c(Oc5ccn6ncnc6c5)cc4F)c3n1)C2 [Example 43] ?
Found: 0.0

Lookup: What do you have for C=CC(=O)N1C[C@@H]2CN(c3ccc4ncnc(Nc5ccc(Oc6ccc7c(c6)ncn7C)c(C)c5F)c4n3)C[C@@H]21 [Example 323] ?
Found: 0.0

Please examine the following record next.
Lookup: Threshold test, efflux ratio at 2 h, 1 µM < 3: C=CC(=O)N1CCC(Oc2ccc3ncnc(Nc4ccc(Oc5ccc6cn(C)nc6c5)c(C)c4F)c3n2)CC1 [Example 6]
Found: 1.0
